test system: Fibroblast growth factor receptor 3 (Homo sapiens), P22607 [G697C]; test: Competitive binding affinity to FGFR3 G697C mutant (unknown origin) at 10 uM in presence of ATP relative to control
Sequence (P22607 whole entry G697C): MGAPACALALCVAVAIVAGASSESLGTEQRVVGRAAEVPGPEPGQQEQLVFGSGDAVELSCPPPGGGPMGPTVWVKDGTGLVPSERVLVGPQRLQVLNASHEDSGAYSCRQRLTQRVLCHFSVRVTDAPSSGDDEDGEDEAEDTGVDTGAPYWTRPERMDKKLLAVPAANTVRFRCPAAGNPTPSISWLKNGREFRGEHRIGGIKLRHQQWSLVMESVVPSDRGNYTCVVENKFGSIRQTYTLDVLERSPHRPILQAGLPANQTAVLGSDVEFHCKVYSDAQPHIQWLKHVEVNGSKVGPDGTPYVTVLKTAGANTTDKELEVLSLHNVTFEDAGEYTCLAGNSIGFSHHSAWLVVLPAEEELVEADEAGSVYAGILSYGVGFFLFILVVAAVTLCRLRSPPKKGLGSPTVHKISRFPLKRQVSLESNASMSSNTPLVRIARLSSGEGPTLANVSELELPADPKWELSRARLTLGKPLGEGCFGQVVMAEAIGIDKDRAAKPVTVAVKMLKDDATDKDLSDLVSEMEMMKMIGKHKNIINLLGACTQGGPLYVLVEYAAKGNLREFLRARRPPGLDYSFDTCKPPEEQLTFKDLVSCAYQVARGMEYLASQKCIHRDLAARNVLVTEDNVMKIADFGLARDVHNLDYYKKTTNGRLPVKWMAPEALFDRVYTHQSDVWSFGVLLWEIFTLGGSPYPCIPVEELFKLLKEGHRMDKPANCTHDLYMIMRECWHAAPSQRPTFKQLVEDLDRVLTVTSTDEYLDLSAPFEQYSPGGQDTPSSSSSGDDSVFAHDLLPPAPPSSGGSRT
// inhibition lookup, one value per entry
reported-metric: inhibition

- input-smiles: "O[C@H]1CC[C@H](Nc2nccc(-n3ncc4ccccc43)n2)CC1"
  reported-measurement: "< 50%"
- input-smiles: "O[C@H]1CC[C@H](Nc2nccc(-c3n[nH]c4ccccc34)n2)CC1"
  reported-measurement: "< 50%"
- input-smiles: "O[C@H]1CC[C@H](Nc2nccc(-n3nnc4ccccc43)n2)CC1"
  reported-measurement: "< 50%"
- input-smiles: "O[C@H]1CC[C@H](Nc2nccc(-n3ccc4ccccc43)n2)CC1"
  reported-measurement: "< 50%"

---

Target: Serine/threonine-protein kinase 17A (Homo sapiens) (UniProt Q9UEE5)
Sequence (whole entry): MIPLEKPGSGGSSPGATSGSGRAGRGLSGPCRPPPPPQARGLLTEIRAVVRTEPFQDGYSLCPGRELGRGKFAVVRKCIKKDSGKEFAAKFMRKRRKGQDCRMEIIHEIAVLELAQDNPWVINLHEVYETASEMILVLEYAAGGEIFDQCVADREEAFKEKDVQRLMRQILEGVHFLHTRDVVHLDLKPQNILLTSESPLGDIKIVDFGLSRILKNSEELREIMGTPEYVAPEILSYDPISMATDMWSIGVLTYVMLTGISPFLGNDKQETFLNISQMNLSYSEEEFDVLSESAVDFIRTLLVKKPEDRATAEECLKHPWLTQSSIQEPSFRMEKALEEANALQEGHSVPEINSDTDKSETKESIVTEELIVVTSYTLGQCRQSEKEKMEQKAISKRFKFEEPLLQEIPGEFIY
Assay: Competitive binding affinity to DRAK1 (unknown origin) at 10 uM in presence of ATP relative to control

- input-smiles: "CS(=O)(=O)CCCOc1cccc2c1ccn2-c1ccnc(N[C@H]2CC[C@H](C(=O)N3CCC(O)CC3)CC2)n1"
  uom: "%"
  relation-symbol: ">"
  inhibition: 85
- input-smiles: "O[C@H]1CC[C@H](Nc2nccc(-n3ncc4ccccc43)n2)CC1"
  uom: "%"
  relation-symbol: "="
  inhibition: 99
- input-smiles: "O[C@H]1CC[C@H](Nc2nccc(-n3nnc4ccccc43)n2)CC1"
  uom: "%"
  relation-symbol: "="
  inhibition: 100
- input-smiles: "O[C@H]1CC[C@H](Nc2nccc(-n3ccc4ccccc43)n2)CC1"
  uom: "%"
  relation-symbol: "="
  inhibition: 98

---

target: eIF-2-alpha kinase GCN2 (Homo sapiens, UniProt Q9P2K8, S808G); test: Binding affinity to GCN2 kinase domain 2 S808G mutant (unknown origin)
Sequence (Q9P2K8 whole entry S808G, the tested form may be a part): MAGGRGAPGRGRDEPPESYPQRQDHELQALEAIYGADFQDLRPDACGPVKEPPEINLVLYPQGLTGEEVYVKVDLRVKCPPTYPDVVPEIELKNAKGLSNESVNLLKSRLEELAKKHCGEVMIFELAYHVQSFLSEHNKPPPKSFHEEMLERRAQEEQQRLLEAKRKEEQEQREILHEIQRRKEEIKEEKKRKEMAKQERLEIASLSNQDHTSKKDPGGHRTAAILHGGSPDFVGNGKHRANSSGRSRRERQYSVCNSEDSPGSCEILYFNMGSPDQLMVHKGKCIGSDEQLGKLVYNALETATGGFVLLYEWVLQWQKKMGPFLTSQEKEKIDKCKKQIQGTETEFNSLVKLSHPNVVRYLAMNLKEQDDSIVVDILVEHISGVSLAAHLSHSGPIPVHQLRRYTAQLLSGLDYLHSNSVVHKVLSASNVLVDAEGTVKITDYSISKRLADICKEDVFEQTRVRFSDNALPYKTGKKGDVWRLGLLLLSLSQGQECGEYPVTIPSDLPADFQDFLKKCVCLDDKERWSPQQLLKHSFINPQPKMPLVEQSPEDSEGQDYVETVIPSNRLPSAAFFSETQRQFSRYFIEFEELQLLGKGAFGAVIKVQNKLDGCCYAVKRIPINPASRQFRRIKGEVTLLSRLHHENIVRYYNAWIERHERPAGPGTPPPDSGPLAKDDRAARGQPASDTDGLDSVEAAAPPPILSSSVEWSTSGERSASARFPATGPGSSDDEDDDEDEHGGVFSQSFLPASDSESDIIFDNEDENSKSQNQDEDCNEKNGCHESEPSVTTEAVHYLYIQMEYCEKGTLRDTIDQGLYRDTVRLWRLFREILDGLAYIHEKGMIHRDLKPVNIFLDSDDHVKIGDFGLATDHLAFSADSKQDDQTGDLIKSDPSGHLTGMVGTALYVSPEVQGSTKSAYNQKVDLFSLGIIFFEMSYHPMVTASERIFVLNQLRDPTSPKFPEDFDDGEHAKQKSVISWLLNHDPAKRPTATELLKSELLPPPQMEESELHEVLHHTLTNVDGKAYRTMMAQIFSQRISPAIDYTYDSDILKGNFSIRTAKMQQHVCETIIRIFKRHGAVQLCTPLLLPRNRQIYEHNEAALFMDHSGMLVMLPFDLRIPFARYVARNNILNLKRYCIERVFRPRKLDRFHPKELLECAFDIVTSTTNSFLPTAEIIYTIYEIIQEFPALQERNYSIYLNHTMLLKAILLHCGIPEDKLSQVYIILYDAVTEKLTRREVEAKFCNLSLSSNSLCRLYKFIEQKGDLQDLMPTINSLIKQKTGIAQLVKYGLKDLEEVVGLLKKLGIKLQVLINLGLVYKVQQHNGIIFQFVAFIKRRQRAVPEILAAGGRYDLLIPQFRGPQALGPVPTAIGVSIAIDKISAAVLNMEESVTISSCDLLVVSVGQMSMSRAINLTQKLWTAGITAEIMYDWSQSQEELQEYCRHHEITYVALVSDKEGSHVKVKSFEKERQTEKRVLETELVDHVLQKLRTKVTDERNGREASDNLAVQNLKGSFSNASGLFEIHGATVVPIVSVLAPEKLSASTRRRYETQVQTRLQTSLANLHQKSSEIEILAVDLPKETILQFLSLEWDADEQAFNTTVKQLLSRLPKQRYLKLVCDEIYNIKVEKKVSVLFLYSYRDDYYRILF
pKd: −log10 of the molar value.
reported-metric: pKd

- input-smiles: "CS(=O)(=O)CCCOc1cccc2c1ccn2-c1ccnc(N[C@H]2CC[C@H](C(=O)N3CCC(O)CC3)CC2)n1"
  measured-target: "eIF-2-alpha kinase GCN2 (Homo sapiens, UniProt Q9P2K8, S808G)"
  reported-metric: "pKd"
  reported-measurement: 5.57

---

biological target: Death-associated protein kinase 1 (Homo sapiens); test: Competitive binding affinity to DAPK1 (unknown origin) at 10 uM in presence of ATP relative to control
Sequence (P53355 whole entry, looked up): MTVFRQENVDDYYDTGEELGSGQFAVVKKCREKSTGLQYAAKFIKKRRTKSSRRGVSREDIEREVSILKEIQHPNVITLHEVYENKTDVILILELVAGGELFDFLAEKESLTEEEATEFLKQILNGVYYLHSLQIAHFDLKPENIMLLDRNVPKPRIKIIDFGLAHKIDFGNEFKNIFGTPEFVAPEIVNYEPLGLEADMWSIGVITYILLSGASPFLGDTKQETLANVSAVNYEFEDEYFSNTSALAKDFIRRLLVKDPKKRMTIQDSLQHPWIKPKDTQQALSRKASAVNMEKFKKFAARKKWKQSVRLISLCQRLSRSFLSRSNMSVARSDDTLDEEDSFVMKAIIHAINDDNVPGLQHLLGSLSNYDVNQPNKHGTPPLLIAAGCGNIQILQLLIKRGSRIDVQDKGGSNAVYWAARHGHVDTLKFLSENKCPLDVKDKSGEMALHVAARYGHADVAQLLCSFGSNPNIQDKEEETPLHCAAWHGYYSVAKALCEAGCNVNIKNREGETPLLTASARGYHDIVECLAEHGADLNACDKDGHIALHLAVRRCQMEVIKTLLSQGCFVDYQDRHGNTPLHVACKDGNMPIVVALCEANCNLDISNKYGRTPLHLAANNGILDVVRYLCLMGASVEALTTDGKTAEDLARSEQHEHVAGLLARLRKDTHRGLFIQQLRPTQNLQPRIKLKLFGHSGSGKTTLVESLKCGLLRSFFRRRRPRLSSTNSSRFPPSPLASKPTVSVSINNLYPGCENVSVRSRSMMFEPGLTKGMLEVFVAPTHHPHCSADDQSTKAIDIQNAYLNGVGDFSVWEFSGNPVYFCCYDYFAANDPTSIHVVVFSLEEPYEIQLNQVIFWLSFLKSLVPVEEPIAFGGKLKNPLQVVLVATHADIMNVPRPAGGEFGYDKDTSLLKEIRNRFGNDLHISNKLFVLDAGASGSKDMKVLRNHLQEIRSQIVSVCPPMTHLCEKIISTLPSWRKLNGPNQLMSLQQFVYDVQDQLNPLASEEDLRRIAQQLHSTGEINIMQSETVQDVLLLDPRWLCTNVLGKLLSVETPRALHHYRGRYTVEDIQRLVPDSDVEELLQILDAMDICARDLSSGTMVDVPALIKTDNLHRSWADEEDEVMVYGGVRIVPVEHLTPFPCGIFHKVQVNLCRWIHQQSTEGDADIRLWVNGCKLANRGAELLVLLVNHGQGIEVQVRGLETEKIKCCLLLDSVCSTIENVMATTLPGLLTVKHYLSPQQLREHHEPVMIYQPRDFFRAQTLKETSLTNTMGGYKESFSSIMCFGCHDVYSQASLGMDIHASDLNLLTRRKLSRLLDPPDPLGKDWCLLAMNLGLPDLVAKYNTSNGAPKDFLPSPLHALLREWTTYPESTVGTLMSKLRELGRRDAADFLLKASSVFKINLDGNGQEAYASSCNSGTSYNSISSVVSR
Known inhibition of a selection of molecules

- input-smiles: "O[C@H]1CC[C@H](Nc2nccc(-n3nnc4ccccc43)n2)CC1"
  inhibition: "98%"
- input-smiles: "CS(=O)(=O)CCCOc1cccc2c1ccn2-c1ccnc(N[C@H]2CC[C@H](C(=O)N3CCC(O)CC3)CC2)n1"
  inhibition: "> 85%"
- input-smiles: "O[C@H]1CC[C@H](Nc2nccc(-n3ncc4ccccc43)n2)CC1"
  inhibition: "< 50%"
- input-smiles: "O[C@H]1CC[C@H](Nc2nccc(-n3ccc4ccccc43)n2)CC1"
  inhibition: "< 50%"

Origin of values: ChEMBL document CHEMBL2424622
